The reader will find reported % ΔcGI values listed item by item below.
- Test system: MAP ATCC 19698 (bovine)
- Type: cell-based, Mycobacterium avium subspecies paratuberculosis
- measurement.conditions: 16 μg/ml; Bovine MAP 19698; vs 3.2% DMSO control
experimental.endpoint: % ΔcGI (%)

>  <molecule>
CC(C)/N=c1\cc2n(-c3ccc(Cl)cc3)c3ccccc3nc-2cc1Nc1ccc(Cl)cc1 [Clofazimine, clofazimine]

>  <units.symbol>
%

>  <recorded.measurement>
−99

$$$$
>  <molecule>
CO[C@H]1C[C@@H]2CC[C@@H](C)[C@@](O)(O2)C(=O)C(=O)N2CCCC[C@H]2C(=O)O[C@H]([C@H](C)C[C@@H]2CC[C@@H](O)[C@H](OC)C2)CC(=O)[C@H](C)/C=C(\C)[C@@H](O)[C@@H](OC)C(=O)[C@H](C)C[C@H](C)/C=C/C=C/C=C/1C [Rapamycin, sirolimus (rapamycin)]

>  <units.symbol>
%

>  <recorded.measurement>
−18

$$$$

* * *

- System: MAP ATCC 19698 (bovine)
- Format: cell-based, Mycobacterium avium subspecies paratuberculosis
- measurement.conditions: 16 μg/ml; Bovine MAP 19698; vs 3.2% DMSO control
Recorded % ΔcGI by entry
experimental.endpoint: % ΔcGI (%)

>  <compound>
C=CC[C@@H]1/C=C(\C)C[C@H](C)C[C@H](OC)[C@H]2O[C@@](O)(C(=O)C(=O)N3CCCC[C@H]3C(=O)O[C@H](/C(C)=C/[C@@H]3CC[C@@H](O)[C@H](OC)C3)[C@H](C)[C@@H](O)CC1=O)[C@H](C)C[C@@H]2OC

>  <experimental.endpoint>
% ΔcGI

>  <units.symbol>
%

>  <recorded.measurement>
−5

$$$$
>  <compound>
C[C@@H]1C[C@@H]([C@H](O)CC2CC(=O)NC(=O)C2)C(=O)[C@@H](C)C1 [Cycloheximide, cycloheximide]

>  <experimental.endpoint>
% ΔcGI

>  <units.symbol>
%

>  <recorded.measurement>
−12

$$$$
>  <compound>
CC[C@@]1([C@@H]2O[C@@H]([C@H]3O[C@@](O)(CO)[C@H](C)C[C@@H]3C)C[C@@H]2C)CC[C@H]([C@]2(C)CC[C@]3(C[C@H](O)[C@@H](C)[C@@H]([C@@H](C)[C@@H](OC)[C@H](C)C(=O)O)O3)O2)O1

>  <experimental.endpoint>
% ΔcGI

>  <units.symbol>
%

>  <recorded.measurement>
−62

$$$$
>  <compound>
O=C1NC(=O)c2ccccc21 [Phthalimide, phthalimide]

>  <experimental.endpoint>
% ΔcGI

>  <units.symbol>
%

>  <recorded.measurement>
1

$$$$

* * *

- System: MAP 303 (ruminant with Johne's disease)
- test.protocol: Radiometric BACTEC growth inhibition, MAP 303
- Format: cell-based, Mycobacterium avium subspecies paratuberculosis
- measurement.conditions: 1 μg/ml; Bovine MAP 303; vs 3.2% DMSO control

>  <molecule>
CO[C@H]1C[C@@H]2CC[C@@H](C)[C@@](O)(O2)C(=O)C(=O)N2CCCC[C@H]2C(=O)O[C@H]([C@H](C)C[C@@H]2CC[C@@H](O)[C@H](OC)C2)CC(=O)[C@H](C)/C=C(\C)[C@@H](O)[C@@H](OC)C(=O)[C@H](C)C[C@H](C)/C=C/C=C/C=C/1C [Rapamycin, sirolimus (rapamycin)]

>  <experimental.system>
MAP 303 (ruminant with Johne's disease)

>  <% ΔcGI, %>
4

$$$$
>  <molecule>
O=C1NC(=O)c2ccccc21 [Phthalimide, phthalimide]

>  <experimental.system>
MAP 303 (ruminant with Johne's disease)

>  <% ΔcGI, %>
−2

$$$$
>  <molecule>
CC(C)/N=c1\cc2n(-c3ccc(Cl)cc3)c3ccccc3nc-2cc1Nc1ccc(Cl)cc1 [Clofazimine, clofazimine]

>  <experimental.system>
MAP 303 (ruminant with Johne's disease)

>  <% ΔcGI, %>
−99

$$$$
>  <molecule>
C[C@@H]1C[C@@H]([C@H](O)CC2CC(=O)NC(=O)C2)C(=O)[C@@H](C)C1 [Cycloheximide, cycloheximide]

>  <experimental.system>
MAP 303 (ruminant with Johne's disease)

>  <% ΔcGI, %>
3

$$$$
>  <molecule>
CC[C@@]1([C@@H]2O[C@@H]([C@H]3O[C@@](O)(CO)[C@H](C)C[C@@H]3C)C[C@@H]2C)CC[C@H]([C@]2(C)CC[C@]3(C[C@H](O)[C@@H](C)[C@@H]([C@@H](C)[C@@H](OC)[C@H](C)C(=O)O)O3)O2)O1 [Monensin, monensin]

>  <experimental.system>
MAP 303 (ruminant with Johne's disease)

>  <% ΔcGI, %>
−21

$$$$
>  <molecule>
C=CC[C@@H]1/C=C(\C)C[C@H](C)C[C@H](OC)[C@H]2O[C@@](O)(C(=O)C(=O)N3CCCC[C@H]3C(=O)O[C@H](/C(C)=C/[C@@H]3CC[C@@H](O)[C@H](OC)C3)[C@H](C)[C@@H](O)CC1=O)[C@H](C)C[C@@H]2OC [Tacrolimus, tacrolimus (FK506)]

>  <experimental.system>
MAP 303 (ruminant with Johne's disease)

>  <% ΔcGI, %>
5

$$$$

* * *

- System: M. avium 101
- Format: cell-based, M. avium subspecies avium
- measurement.conditions: 16 μg/ml, vs 3.2% DMSO control
experimental.endpoint: % ΔcGI (%)

>  <compound>
C[C@@H]1C[C@@H]([C@H](O)CC2CC(=O)NC(=O)C2)C(=O)[C@@H](C)C1 [Cycloheximide, cycloheximide]

>  <units.symbol>
%

>  <recorded.measurement>
1

$$$$
>  <compound>
C=CC[C@@H]1/C=C(\C)C[C@H](C)C[C@H](OC)[C@H]2O[C@@](O)(C(=O)C(=O)N3CCCC[C@H]3C(=O)O[C@H](/C(C)=C/[C@@H]3CC[C@@H](O)[C@H](OC)C3)[C@H](C)[C@@H](O)CC1=O)[C@H](C)C[C@@H]2OC [Tacrolimus, tacrolimus (FK506)]

>  <units.symbol>
%

>  <recorded.measurement>
−40

$$$$
>  <compound>
CC(C)/N=c1\cc2n(-c3ccc(Cl)cc3)c3ccccc3nc-2cc1Nc1ccc(Cl)cc1 [Clofazimine, clofazimine]

>  <units.symbol>
%

>  <recorded.measurement>
−98

$$$$

* * *

- Test system: M. avium 101
- Format: cell-based, M. avium subspecies avium
- measurement.conditions: 16 μg/ml, vs 3.2% DMSO control
In this section we review reported % ΔcGI values for a set of molecules.

>  <molecule>
O=C1NC(=O)c2ccccc21 [Phthalimide, phthalimide]

>  <experimental.system>
M. avium 101

>  <% ΔcGI (%)>
2

$$$$
>  <molecule>
CO[C@H]1C[C@@H]2CC[C@@H](C)[C@@](O)(O2)C(=O)C(=O)N2CCCC[C@H]2C(=O)O[C@H]([C@H](C)C[C@@H]2CC[C@@H](O)[C@H](OC)C2)CC(=O)[C@H](C)/C=C(\C)[C@@H](O)[C@@H](OC)C(=O)[C@H](C)C[C@H](C)/C=C/C=C/C=C/1C [Rapamycin, sirolimus (rapamycin)]

>  <experimental.system>
M. avium 101

>  <% ΔcGI (%)>
−28

$$$$
>  <molecule>
CC[C@@]1([C@@H]2O[C@@H]([C@H]3O[C@@](O)(CO)[C@H](C)C[C@@H]3C)C[C@@H]2C)CC[C@H]([C@]2(C)CC[C@]3(C[C@H](O)[C@@H](C)[C@@H]([C@@H](C)[C@@H](OC)[C@H](C)C(=O)O)O3)O2)O1

>  <experimental.system>
M. avium 101

>  <% ΔcGI (%)>
4

$$$$
